From: patent US11793849B2

The compounds listed here are annotated with their reduction of the antibiotic's MIC50 vs single use.
# Test system: MDRPA
# Experimental details: Checkerboard assay (combined-use MIC, FIC)
# Type: cell-based, Pseudomonas aeruginosa
# Condition: 20 MDRPAs; antibiotic with 95% ethanol extract
Number in %, nothing else.

{"Compound": "C[C@H]1COc2c(N3CCN(C)CC3)c(F)cc3c(=O)c(C(=O)O)cn1c23 [LVX, Levofloxacin]", "Numeric result": 75}
{"Compound": "C[C@@H](O)[C@H]1C(=O)N2C(C(=O)O)=C(SCCN=CN)C[C@H]12 [IMP, imipenem]", "Numeric result": 75}
{"Compound": "CC(C)(O/N=C(\\C(=O)N[C@@H]1C(=O)N2C(C(=O)[O-])=C(C[n+]3ccccc3)CS[C@H]12)c1csc(N)n1)C(=O)O [CAZ, Ceftazidime]", "Numeric result": 50}
{"Compound": "CCN1CCN(C(=O)N[C@@H](C(=O)N[C@@H]2C(=O)N3C(C(=O)O)=C(CSc4nnnn4C)CS[C@H]23)c2ccc(O)cc2)C(=O)C1=O [CFP, Cefoperazone]", "Numeric result": 93.75}

Then this compound:
What reduction of the antibiotic's MIC50 vs single use value was documented for this compound, NCC[C@H](O)C(=O)N[C@@H]1C[C@H](N)[C@@H](O[C@H]2O[C@H](CN)[C@@H](O)[C@H](O)[C@H]2O)[C@H](O)[C@H]1O[C@H]1O[C@H](CO)[C@@H](O)[C@H](N)[C@H]1O [AMK, Amikacin] ?
87.5
